molecular target: Kras and SOS1 (biotin-tagged human Kras loaded with GDP, His-tagged human SOS1) (Homo sapiens, UniProt P01116, G12D); construct: made in house; host or cells: E. coli (stated for Kras only); assay: Protein-protein interaction inhibition between Kras and SOS1 (KrasGl2D-SOS PPI) using AlphaScreen; type: binding; details: AlphaScreen; biotin-tagged human Kras loaded with GDP, His-tagged human SOS1; read-out: KRAS G12D-SOS PPI IC50
Sequence (P01116 1-188 isoform P01116-2 G12D): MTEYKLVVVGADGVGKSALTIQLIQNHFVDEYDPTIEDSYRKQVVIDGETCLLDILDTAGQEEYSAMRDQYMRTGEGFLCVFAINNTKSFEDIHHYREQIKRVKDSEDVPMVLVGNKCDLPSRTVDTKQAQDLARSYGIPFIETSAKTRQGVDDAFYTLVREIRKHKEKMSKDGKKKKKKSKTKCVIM
Starred links: 1 amine or outer side, 2 acyl side, 3 side chain; linkers in the order of their positions; H or OH if unused. Positions of bridges follow the written chain, without caps; N, C: chain ends. Non-standard residues stand in square brackets, D forms with d. Residues, ends and D or L forms follow the SMILES beside them. *: point of attachment. hPhe(3-Cl-4-CF3) = N[C@@H](CCc1ccc(C(F)(F)F)c(Cl)c1)C(=O)O; hPhe(3-F,4-CF3) = N[C@@H](CCc1ccc(C(F)(F)F)c(F)c1)C(=O)O; NMePhe(4-Me) = CN[C@@H](Cc1ccc(C)cc1)C(=O)O; NMeGly(cPent) = CN[C@H](C(=O)O)C1CCCC1; dβ3hPip = O=C(C[C@H]1CCCCN1[*:1])[*:2]; NMeCha = CN[C@@H](CC1CCCCC1)C(=O)O; NEtLeu = CCN[C@@H](CC(C)C)C(=O)O; NMeChg = CN[C@H](C(=O)O)C1CCCCC1; NMeI = CC[C@H](C)[C@H](NC)C(=O)O; Cha = N[C@@H](CC1CCCCC1)C(=O)O; NMeD = CN[C@@H](CC(=O)O)C(=O)O; NMeL = CN[C@@H](CC(C)C)C(=O)O; NMehSer = CN[C@@H](CCO)C(=O)O; NMeV = CN[C@H](C(=O)O)C(C)C; d(β3hA) = C[C@@H](N)CC(=O)O; NMeA = CN[C@@H](C)C(=O)O; Piperidide = C1CCN(*)CC1; Ac5c = NC1(C(=O)O)CCCC1; Aze = O=C(O)[C@@H]1CCN1; Abu = CC[C@H](N)C(=O)O; Sar = CNCC(=O)O
RECORDED METRIC: IC50 (nM)

[[record]]
molecule = "CC[C@@H]1NC(=O)[C@H]([C@@H](C)CC)NC(=O)[C@H](CC(C)C)N(C)C(=O)C[C@@H](C)NC(=O)[C@H](C(C)C)N(C)C(=O)C2(CCCC2)NC(=O)[C@@H]2CCCN2C(=O)[C@H](CCc2ccc(C(F)(F)F)c(Cl)c2)NC(=O)CN(C)C(=O)[C@H](CC2CCCCC2)N(C)C(=O)CN(C)C1=O [Compound 1459] (cyclo([Abu][Sar][NMeCha][Sar][hPhe(3-Cl-4-CF3)]P[Ac5c][NMeV][d(β3hA)][NMeL]I))"
measurement_units = "nM"
result_value = 290

[[record]]
molecule = "CC[C@H](C)[C@@H]1NC(=O)[C@H](CC(C)C)N(C)C(=O)C[C@H]2CCCCN2C(=O)[C@H]([C@@H](C)CC)N(C)C(=O)C2(CCCC2)NC(=O)[C@@H]2CCCN2C(=O)[C@H](CCc2ccc(C(F)(F)F)c(Cl)c2)NC(=O)CN(C)C(=O)[C@H](Cc2ccc(C)cc2)N(C)C(=O)[C@@H]2CCN2C(=O)[C@H](C)N(C)C1=O [Compound 1912] (cyclo([Ac5c][NMeI][dβ3hPip][NMeL]I[NMeA][Aze][NMePhe(4-Me)][Sar][hPhe(3-Cl-4-CF3)]P))"
measurement_units = "nM"
result_value = 27

[[record]]
molecule = "CC[C@H](C)[C@@H]1NC(=O)[C@H](CC(C)C)N(C)C(=O)C[C@@H](C(=O)N2CCCCC2)N(C)C(=O)[C@H](C2CCCCC2)N(C)C(=O)C2(CCCC2)NC(=O)[C@@H]2CCCN2C(=O)[C@H](CCc2ccc(C(F)(F)F)c(Cl)c2)NC(=O)CN(C)C(=O)[C@H](CCOC)N(C)C(=O)CN(C)C(=O)CN(C)C1=O [Compound 159] ([NMeL]I[Sar][Sar][NMehSer](Me)[Sar][hPhe(3-Cl-4-CF3)]P[Ac5c][NMeChg][NMeD]-Piperidide; lactam N-11)"
measurement_units = "nM"
result_value = 2.4

[[record]]
molecule = "CC(C)C[C@H]1C(=O)N[C@@H](CC2CCCCC2)C(=O)N(C)CC(=O)N(C)CC(=O)N(C)[C@@H](CC2CCCCC2)C(=O)N(C)CC(=O)N[C@@H](CCc2ccc(C(F)(F)F)c(Cl)c2)C(=O)N2CCC[C@H]2C(=O)NC2(CCCC2)C(=O)N(C)[C@@H](C(C)C)C(=O)N[C@H](C)CC(=O)N1C [Compound 537] (cyclo([Ac5c][NMeV][d(β3hA)][NMeL][Cha][Sar][Sar][NMeCha][Sar][hPhe(3-Cl-4-CF3)]P))"
measurement_units = "nM"
result_value = 82

[[record]]
molecule = "CC[C@H](C)[C@@H]1NC(=O)[C@H](CC(C)C)N(CC)C(=O)C[C@@H](C(=O)N(C)C)N(C)C(=O)[C@H](C2CCCC2)N(C)C(=O)C2(CCCC2)NC(=O)[C@@H]2CCCN2C(=O)[C@H](CCc2ccc(C(F)(F)F)c(F)c2)NC(=O)CN(C)C(=O)[C@H](CC2CCCCC2)N(C)C(=O)[C@@H]2CCN2C(=O)[C@H](C)NC1=O [Compound 1252] ([NEtLeu]IA[Aze][NMeCha][Sar][hPhe(3-F,4-CF3)]P[Ac5c][NMeGly(cPent)][NMeD]-NMe2; lactam N-11)"
measurement_units = "nM"
result_value = 2.5

